# Protocol: solvent given as SMILES
# Test parameters: in O
Assay metric: absorption maximum (nm)

>  <Smiles string>
CCc1ccc(/C=N/c2cc(C(C)C)c(O)cc2C)cc1

>  <Recorded value>
354

$$$$
>  <Smiles string>
N#Cc1nc2cnc(N)nc2n1Cc1ccccc1

>  <Recorded value>
331

$$$$
>  <Smiles string>
CC(=O)[O-]

>  <Recorded value>
210

$$$$
>  <Smiles string>
O=S(=O)([O-])c1cccc2c([O-])cccc12

>  <Recorded value>
346

$$$$
>  <Smiles string>
O=S(=O)([O-])c1ccc2c([O-])cc(S(=O)(=O)[O-])cc2c1

>  <Recorded value>
350

$$$$
>  <Smiles string>
Nc1cc(N)cc(-c2nc3ccccc3s2)c1

>  <Recorded value>
360

$$$$
